The entries below come with measured Ki values attached.
Target of assay: T1, human recombinant GIP receptor (human, UniProt P48546 22-466)
T1 construct: whole, on cells; Assayed as washed membrane preparations of CHO-K1 clonal cells expressing the receptor; also called hGIP receptor
T1 sequence (looked up): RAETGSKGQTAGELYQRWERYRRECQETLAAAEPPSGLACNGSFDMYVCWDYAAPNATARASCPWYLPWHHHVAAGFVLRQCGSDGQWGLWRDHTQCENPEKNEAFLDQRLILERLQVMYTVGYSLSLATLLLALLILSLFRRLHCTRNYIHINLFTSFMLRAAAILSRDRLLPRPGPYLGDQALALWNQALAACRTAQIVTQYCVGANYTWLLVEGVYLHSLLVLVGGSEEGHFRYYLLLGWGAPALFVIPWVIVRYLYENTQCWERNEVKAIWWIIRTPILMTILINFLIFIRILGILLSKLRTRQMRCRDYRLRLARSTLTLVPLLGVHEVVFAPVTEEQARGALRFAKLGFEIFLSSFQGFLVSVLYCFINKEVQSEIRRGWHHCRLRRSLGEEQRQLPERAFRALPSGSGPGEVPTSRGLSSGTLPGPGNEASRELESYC
Test name: displacement of [125I]GIP from membranes of CHO-K1 cells expressing human recombinant GIP receptor
Non-standard residues stand in square brackets, D forms with d. No end group written: not given here. *: point of attachment. Psu = N-propylsuccinimide on Cys S (Cys alkylated with N-propylmaleimide), CCCN1C(=O)CC(*)C1=O; Myristoyl = CCCCCCCCCCCCCC(=O)*; Ac6c = NC1(C(=O)O)CCCCC1; Nle = CCCC[C@H](N)C(=O)O; Orn = NCCC[C@H](N)C(=O)O; Aib = CC(C)(N)C(=O)O

The recorded Ki for entry YAEGTFISDYSIXMDKIHQQDFVNWLLAQKGKKNDWKHNITQD (Aib (alpha-aminoisobutyric acid) at 13; C-terminal amide, Synthetic analogue of human GIP with an added Asp at position 43) [(Aib^13, Asp^43)hGIP(1-43)-NH2] equals 0.6 nM

The recorded Ki for entry YAEGTF[Ac6c]SDYSIAMDKIHQQDFVNWLLAQKGKKNDWKHNITC(Psu)-OH (Synthetic analogue of human GIP) [[A6c^7, Cys(Psu)^42]hGIP(1-42)-OH] equals 30.4 nM

The recorded Ki for entry YAEGTFISDYXIAMDKIHQQDFVNWLLAQKGKXNDWKHNITQH (A5c at 11; Orn(N-C(O)-(CH2)10-CH3) at 33; C-terminal free acid, Synthetic acylated analogue of human GIP with an added His at position 43) [[A5c^11, Orn^33(N-C(O)-(CH2)10-CH3), His^43]hGIP(1-43)-OH] equals 9.1 nM

Continuing:
The recorded Ki for entry YAEGTFISDYSIXMDKIHQQDFVNWLLAQKGKKNDWKHNITQW (Aib at 13; C-terminal free acid, Synthetic analogue of human GIP with an added Trp at position 43) [(Aib^13, Trp^43)hGIP(1-43)-OH] equals 2.76 nM

The recorded Ki for entry YAEGTFISDYXIAXDKIHQQDFVNWLLAQKGKKNDWKHNITQH (A5c at 11; Nle at 14; C-terminal free acid, Synthetic analogue of human GIP with an added His at position 43) [(A5c^11, Nle^14, His^43)hGIP(1-43)-OH] equals 0.72 nM

The recorded Ki for entry YAEGTFISDYXIAMDKIHQQDFVNWLLAQKGKKNDWKHNIXQC (A5c at 11 and 41; C-terminal amide, Synthetic analogue of human GIP with an added Cys at position 43) [(A5c^11, 41, Cys^43)hGIP(1-43)-NH2] equals 0.51 nM

The recorded Ki for entry YAEGTFISDYXIAMDKIHQQDFVNWLLAQKGKXNDWKHNITQH (A5c at 11; Orn(N-C(O)-(CH2)14-CH3) at 33; C-terminal free acid, Synthetic acylated analogue of human GIP) [[A5c^11, Orn^33(N-C(O)-(CH2)14-CH3), His^43]hGIP(1-43)-OH] equals 26.4 nM

The recorded Ki for entry YAEGTFISDYXIAMDKIHQQDFVNWLLAQKGKKNDWKHNITQH (A5c at 11; C-terminal free acid, Synthetic analogue of human GIP with an added His at position 43) [(A5c^11, His^43)hGIP(1-43)-OH] equals 0.54 nM

The recorded Ki for entry YAEGTFISDYXIAMDKIHQQDFVNWLLAQKGKKNDWKHNITQT (A5c at 11; C-terminal free acid, Synthetic analogue of human GIP with an added Thr at position 43) [(A5c^11, Thr^43)hGIP(1-43)-OH] equals 3.13 nM

The recorded Ki for entry YAEGTF[Ac6c]SDYSIAMDKIHQQDFVNWLLAQK[Orn](Myristoyl)KKNDWKHNITQ-OH (Synthetic analogue of human GIP) [[A6c^7, Orn^31(N-C(O)-(CH2)12-CH3)]hGIP(1-42)-OH] equals 18.1 nM

The recorded Ki for entry YAEGTFISDYXIAMDKIHQQDFVNWLLAQKGCKNDWKHNIXQ (A5c at 11 and 41; Cys(succinimide-N-20K PEG) at 32; C-terminal amide, Synthetic PEGylated analogue of human GIP) [[A5c^11,41, Cys^32(succinimide-N-20K PEG)]hGIP(1-42)-NH2] equals 0.7 nM

The recorded Ki for entry YAEGTFISDYXIAMDKIHQQDFVNWLLAQKGKKNDWKHNIXQ (A5c (1-amino-1-cyclopentanecarboxylic acid) at 11 and 41; C-terminal free acid, Synthetic analogue of human GIP) [(A5c^11, 41)hGIP(1-42)-OH] equals 0.12 nM

The recorded Ki for entry YAEGTFISDYXIAMDKIHQQDFVNWLLAQKGKKNDWKHNIXQC (A5c at 11 and 41; Cys(succinimide-N-30K PEG) at 43; C-terminal amide, Synthetic PEGylated analogue of human GIP) [[A5c^11,41, Cys^43(succinimide-N-30K PEG)]hGIP(1-43)-NH2] equals 0.69 nM

The recorded Ki for entry YAEGTFISDYXIAXDKIHQQDFVNWLLAQKGKKNDWKHNXTQ (A6c at 11, 14 and 40; C-terminal free acid, Synthetic analogue of human GIP) [(A6c^11, 14, 40)hGIP(1-42)-OH] equals 1.3 nM

The recorded Ki for entry YAEGTFISDYSI[Aib][Nle]DKIHQQDFVNWLLAQKGKKNDWKHNITQF-OH (Synthetic analogue of human GIP with an added Phe at position 43) [(Aib^13, Nle^14, Phe^43)hGIP(1-43)-OH] equals 3.15 nM

The recorded Ki for entry YAEGTFISDYXIAMDKIHQQDFVNWLLAQKGKCNDWKHNIXQ (A5c at 11 and 41; C-terminal amide, Synthetic analogue of human GIP with Cys at position 33) [(A5c^11, 41, Cys^33)hGIP(1-42)-NH2] equals 1.05 nM

The recorded Ki for entry YAEGTFISDYXIAXDKIHQQDFVNWLLAQKGKKNDWKHNIXQ (A6c (1-amino-1-cyclohexanecarboxylic acid) at 11, 14 and 41; C-terminal free acid, Synthetic analogue of human GIP) [(A6c^11, 14, 41)hGIP(1-42)-OH] equals 4.72 nM

The recorded Ki for entry YAEGTFISDYXIAXDKIHQQDFVNWLLAQK (A5c at 11 and 14; C-terminal amide, Synthetic truncated analogue of human GIP) [(A5c^11, 14)hGIP(1-30)-NH2] equals 0.78 nM

The recorded Ki for entry YAEGTFISDYXIAMDKIHQQDFVNWLLAQKGKKNDWKHNITQX (A5c at 11; Ado (12-aminododecanoic acid) at 43; C-terminal free acid, Synthetic analogue of human GIP) [(A5c^11, Ado^43)hGIP(1-43)-OH] equals 31.6 nM

The recorded Ki for entry YAEGTFISDYXIAMDKIHQQDFVNWLLAQKGKKNDWKHNITQA (A5c at 11; C-terminal free acid, Synthetic analogue of human GIP with an added Ala at position 43) [(A5c^11, Ala^43)hGIP(1-43)-OH] equals 3.43 nM
